- protocol_notes: Rate of release of opioid agonist (key differentiating attributes, Table 5)
- condition_set: in words (Fast/Slow)
endpoint_name: Rate of Release of Opioid Against

>  <compound>
COc1ccc2c3c1OC1C(OC(=O)N(C)C(CNC(=O)[C@H](CCCNC(=N)N)NC(=O)CNC(C)=O)C(=O)NCCCC[C@H](NC(=O)OCc4ccccc4)C(=O)NCCOc4ccc(C(=O)Oc5ccc(NC(=N)N)cc5)cc4)=CC[C@H]4[C@@H](C2)N(C)CC[C@]314 (stereo partly shown) [II-J-71c]

>  <endpoint_name>
Rate of Release of Opioid Against

>  <recorded_result>
Slow

$$$$
>  <compound>
COc1ccc2c3c1OC1C(OC(=O)N(C)C(CNC(=O)[C@H](CCCNC(=N)N)NC(=O)CNC(C)=O)C(=O)NCCCC[C@H](NC(=O)OCc4ccccc4)C(=O)NCCOc4ccc(C(=O)Oc5cccc(NC(=N)N)c5)cc4)=CC[C@H]4[C@@H](C2)N(C)CC[C@]314 (stereo partly shown) [II-J-71b]

>  <endpoint_name>
Rate of Release of Opioid Against

>  <recorded_result>
Slow

$$$$
>  <compound>
COc1ccc2c3c1O[C@H]1C(OC(=O)N4CCC(C(=O)NCCCC[C@H](NC(=O)OCc5ccccc5)C(=O)NCCOc5ccc(C(=O)Oc6ccc(NC(=N)N)cc6)cc5)CC4CNC(=O)[C@@H](CCCNC(=N)N)NC(=O)CNC(C)=O)=CC[C@H]4[C@@H](C2)N(C)CC[C@]314 (stereo partly drawn) [II-D-71c]

>  <endpoint_name>
Rate of Release of Opioid Against

>  <recorded_result>
Fast

$$$$
>  <compound>
COc1ccc2c3c1O[C@H]1C(OC(=O)N4CCC(C(=O)NCCCC[C@H](NC(=O)OCc5ccccc5)C(=O)NCCOc5ccc(C(=O)Oc6cccc(NC(=N)N)c6)cc5)CC4CNC(=O)[C@@H](CCCNC(=N)N)NC(=O)CNC(C)=O)=CC[C@H]4[C@@H](C2)N(C)CC[C@]314 (stereo partly drawn) [II-D-71b]

>  <endpoint_name>
Rate of Release of Opioid Against

>  <recorded_result>
Fast

$$$$

###

- test_system: trypsin (Bos taurus)
- Construct: gene PRSS1
- Sequence (P00760 24-246): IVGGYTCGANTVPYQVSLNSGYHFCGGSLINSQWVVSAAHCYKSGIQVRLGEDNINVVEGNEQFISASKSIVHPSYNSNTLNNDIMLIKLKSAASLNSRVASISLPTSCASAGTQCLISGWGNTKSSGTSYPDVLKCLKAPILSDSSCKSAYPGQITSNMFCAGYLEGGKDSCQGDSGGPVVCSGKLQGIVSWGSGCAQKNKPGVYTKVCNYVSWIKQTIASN
- protocol_notes: Trypsin inhibitory potency (key differentiating attributes, Table 5)
- Assay type: biochemical

>  <compound>
COc1ccc2c3c1O[C@H]1C(OC(=O)N4CCC(C(=O)NCCCC[C@H](NC(=O)OCc5ccccc5)C(=O)NCCOc5ccc(C(=O)Oc6ccc(NC(=N)N)cc6)cc5)CC4CNC(=O)[C@@H](CCCNC(=N)N)NC(=O)CNC(C)=O)=CC[C@H]4[C@@H](C2)N(C)CC[C@]314 (stereo partly drawn) [II-D-71c]

>  <Trypsin Inhibitory Potency>
High

$$$$
>  <compound>
COc1ccc2c3c1O[C@H]1C(OC(=O)N4CCC(C(=O)NCCCC[C@H](NC(=O)OCc5ccccc5)C(=O)NCCOc5ccc(C(=O)Oc6cccc(NC(=N)N)c6)cc5)CC4CNC(=O)[C@@H](CCCNC(=N)N)NC(=O)CNC(C)=O)=CC[C@H]4[C@@H](C2)N(C)CC[C@]314 (stereo partly drawn) [II-D-71b]

>  <Trypsin Inhibitory Potency>
Low

$$$$
>  <compound>
COc1ccc2c3c1OC1C(OC(=O)N(C)C(CNC(=O)[C@H](CCCNC(=N)N)NC(=O)CNC(C)=O)C(=O)NCCCC[C@H](NC(=O)OCc4ccccc4)C(=O)NCCOc4ccc(C(=O)Oc5cccc(NC(=N)N)c5)cc4)=CC[C@H]4[C@@H](C2)N(C)CC[C@]314 (stereo partly shown) [II-J-71b]

>  <Trypsin Inhibitory Potency>
Low

$$$$
>  <compound>
COc1ccc2c3c1OC1C(OC(=O)N(C)C(CNC(=O)[C@H](CCCNC(=N)N)NC(=O)CNC(C)=O)C(=O)NCCCC[C@H](NC(=O)OCc4ccccc4)C(=O)NCCOc4ccc(C(=O)Oc5ccc(NC(=N)N)cc5)cc4)=CC[C@H]4[C@@H](C2)N(C)CC[C@]314 (stereo partly shown) [II-J-71c]

>  <Trypsin Inhibitory Potency>
High

$$$$

###

- protocol_notes: Rate of release of opioid agonist (key differentiating attributes, Table 5)
- condition_set: read-out: Rate of Release of Opioid Against: T1/2
- Text: As mentioned previously, a wide range of targeted oral pharmacokinetic profiles can be achieved by administering pharmaceutical compositions containing specific combinations of different polysubunit molecules to subjects. […]
endpoint_name: half-life

>  <compound>
COc1ccc2c3c1OC1C(OC(=O)N(C)C(CNC(=O)[C@H](CCCNC(=N)N)NC(=O)CNC(C)=O)C(=O)NCCCC[C@H](NC(=O)OCc4ccccc4)C(=O)NCCOc4ccc(C(=O)Oc5ccc(NC(=N)N)cc5)cc4)=CC[C@H]4[C@@H](C2)N(C)CC[C@]314 (stereo partly shown) [II-J-71c]

>  <recorded_result>
~3 h

$$$$
>  <compound>
COc1ccc2c3c1O[C@H]1C(OC(=O)N4CCC(C(=O)NCCCC[C@H](NC(=O)OCc5ccccc5)C(=O)NCCOc5ccc(C(=O)Oc6ccc(NC(=N)N)cc6)cc5)CC4CNC(=O)[C@@H](CCCNC(=N)N)NC(=O)CNC(C)=O)=CC[C@H]4[C@@H](C2)N(C)CC[C@]314 (stereo partly drawn) [II-D-71c]

>  <recorded_result>
~0.167 h

$$$$
>  <compound>
COc1ccc2c3c1OC1C(OC(=O)N(C)C(CNC(=O)[C@H](CCCNC(=N)N)NC(=O)CNC(C)=O)C(=O)NCCCC[C@H](NC(=O)OCc4ccccc4)C(=O)NCCOc4ccc(C(=O)Oc5cccc(NC(=N)N)c5)cc4)=CC[C@H]4[C@@H](C2)N(C)CC[C@]314 (stereo partly shown) [II-J-71b]

>  <recorded_result>
~3 h

$$$$
>  <compound>
COc1ccc2c3c1O[C@H]1C(OC(=O)N4CCC(C(=O)NCCCC[C@H](NC(=O)OCc5ccccc5)C(=O)NCCOc5ccc(C(=O)Oc6cccc(NC(=N)N)c6)cc5)CC4CNC(=O)[C@@H](CCCNC(=N)N)NC(=O)CNC(C)=O)=CC[C@H]4[C@@H](C2)N(C)CC[C@]314 (stereo partly drawn) [II-D-71b]

>  <recorded_result>
~0.167 h

$$$$
